# ASSAY_SYSTEM: T1, hFc tagged monkey LAG-3 protein (cLAG-3-hFc protein) (monkey; human)
# T1 construct: Made in HEK293 cells; also called monkey LAG-3 extracellular domain protein; not shown: human IgG Fc fragment (hFc) of the pCpC vector
# T1 chain: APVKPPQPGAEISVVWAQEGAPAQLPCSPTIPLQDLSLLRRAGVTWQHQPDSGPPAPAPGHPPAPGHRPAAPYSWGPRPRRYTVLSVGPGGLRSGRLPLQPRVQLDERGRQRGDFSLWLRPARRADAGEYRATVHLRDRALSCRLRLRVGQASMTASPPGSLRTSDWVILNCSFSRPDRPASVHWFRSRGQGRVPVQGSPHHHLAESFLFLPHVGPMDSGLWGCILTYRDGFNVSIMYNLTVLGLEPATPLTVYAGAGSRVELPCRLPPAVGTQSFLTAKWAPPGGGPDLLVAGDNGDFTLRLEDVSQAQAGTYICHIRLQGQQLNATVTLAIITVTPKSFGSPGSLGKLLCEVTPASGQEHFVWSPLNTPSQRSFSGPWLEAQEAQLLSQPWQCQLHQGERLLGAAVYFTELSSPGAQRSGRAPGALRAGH
# ASSAY_INFO: ELISA, cLAG-3-hFc coated; 0.0000 nM

[
  {
    "BINDER": "409D4E10 (LAG-3 mouse-human chimeric antibody) (antibody, V domains shown) VH: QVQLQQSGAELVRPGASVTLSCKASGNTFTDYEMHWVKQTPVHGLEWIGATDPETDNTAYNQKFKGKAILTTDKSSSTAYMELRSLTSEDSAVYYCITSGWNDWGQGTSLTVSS VL: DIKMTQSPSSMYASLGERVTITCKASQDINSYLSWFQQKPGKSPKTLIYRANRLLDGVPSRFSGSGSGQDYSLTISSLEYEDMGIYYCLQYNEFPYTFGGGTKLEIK",
    "OD450": "0.18 OD450"
  },
  {
    "BINDER": "556F6B8 (LAG-3 mouse-human chimeric antibody) (antibody, V domains shown, also called 556F8B8) VH: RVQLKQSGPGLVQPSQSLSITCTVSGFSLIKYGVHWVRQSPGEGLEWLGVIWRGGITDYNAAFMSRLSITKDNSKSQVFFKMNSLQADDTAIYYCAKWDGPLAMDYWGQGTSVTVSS VL: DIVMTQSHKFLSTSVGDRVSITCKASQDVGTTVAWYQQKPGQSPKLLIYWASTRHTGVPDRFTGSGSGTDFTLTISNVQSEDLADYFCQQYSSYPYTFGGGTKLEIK",
    "OD450": "0.19 OD450"
  }
]

Ref: patent US20210155689A1
